target: human LPA1 (Homo sapiens, UniProt Q92633); construct: expressed in transfected cells; host or cells: Chinese hamster ovary (CHO) cells; assay: LPA1 functional antagonist assay (LPA-induced calcium flux); assay type: cell-based; settings: CHO cells overexpressing human LPA1; inhibition of calcium flux induced by 10 nM LPA; read-out: hLPA1 IC50
Sequence (Q92633 whole entry): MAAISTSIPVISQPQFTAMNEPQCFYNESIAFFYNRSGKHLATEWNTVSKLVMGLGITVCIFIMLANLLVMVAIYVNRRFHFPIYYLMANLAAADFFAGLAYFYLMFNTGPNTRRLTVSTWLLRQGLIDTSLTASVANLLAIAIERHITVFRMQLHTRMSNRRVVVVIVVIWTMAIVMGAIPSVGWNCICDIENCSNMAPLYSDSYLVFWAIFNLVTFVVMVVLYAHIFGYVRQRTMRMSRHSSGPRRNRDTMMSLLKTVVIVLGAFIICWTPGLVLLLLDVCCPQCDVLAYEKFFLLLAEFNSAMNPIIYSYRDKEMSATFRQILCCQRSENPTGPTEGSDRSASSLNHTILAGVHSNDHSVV
measuredMetric: IC50 (nM)

a = Cc1nc(-c2nnn(C)c2CCOC(=O)N(C)CC2CCC2)ccc1O[C@H]1CCC[C@H](C(=O)O)C1 [Example 241]
b = CN(CC1CC1)C(=O)OCc1c(-c2cnc(O[C@H]3CCC[C@H](C(=O)O)C3)c(C(F)(F)F)c2)nnn1C [Example 237]
c = CN(CC1CC1)C(=O)OCc1c(-c2ccc(O[C@H]3CCC[C@H](C(=O)O)C3)c(C(F)(F)F)n2)nnn1C [Example 273]
Problem: Arrange the items listed above so that IC50 rises from first to last. Order the labels as requested and give them as your answer.
Result: c, a, b
(c: 7 nM, a: 41 nM, b: 2400 nM)
